Each recorded value in this set is attributed to patent US7217730B2.

# assay target: NS5B from the BK strain (genotype 1b) (Hepatitis C virus genotype 1b)
# Construct: NS5B from the BK strain (genotype 1b) is expressed in E. coli as a protein in which the 21 C-terminal amino acids are replaced; made in house; host or cells: E. coli
# assay procedure: Hepatitis C polymerase inhibition, NS5B BK strain, 33P-GTP filter assay
# Format: biochemical
# condition description: Table 1A; 20 μM compound; read-out: HCV pol % inh at 20 μM
value kind: inhibition at 20 µM (%)
Numbers only, in %.

Some solved entries appear below for comparison.
O=C(O)CC1(c2ccoc2)OCCc2c1[nH]c1c(F)cc(F)c(Br)c21 (stereo not drawn) ... 74
CCCC1(CC(=O)O)OCCc2c1[nH]c1c(Cl)cc(C)c(C#N)c21 (stereo not drawn) ... 88

Okay, here is my list. What is inhibition at 20 µM for each of these?
1. CCC1(CC(=O)O)OCCc2c1[nH]c1c(Cl)cc(C)c(C#N)c21 (stereo not drawn)
2. C/C=C/CCC1(CC(=O)O)OCCc2c1[nH]c1cccc(C#N)c21 (stereo not drawn)
3. CCCC1(CC(=O)O)OCCc2c1[nH]c1cccc(-c3ccc(Cl)cc3)c21 (stereo not drawn)
4. CCCC1(CC(=O)O)OCCc2c1[nH]c1cccc(-c3ccc(-c4ccccc4)cc3)c21 (stereo not drawn)
5. CCCCC1(CC(=O)O)OCCc2c1[nH]c1c(Cl)ccc(Cl)c21 (stereo not drawn)

55
15
5
7
78

====

# assay target: NS5B from the BK strain (genotype 1b) (Hepatitis C virus genotype 1b, UniProt P26663)
# Construct: NS5B from the BK strain (genotype 1b) is expressed in E. coli as a protein in which the 21 C-terminal amino acids are replaced; made in house; host or cells: E. coli
# Sequence (P26663 2420-2989): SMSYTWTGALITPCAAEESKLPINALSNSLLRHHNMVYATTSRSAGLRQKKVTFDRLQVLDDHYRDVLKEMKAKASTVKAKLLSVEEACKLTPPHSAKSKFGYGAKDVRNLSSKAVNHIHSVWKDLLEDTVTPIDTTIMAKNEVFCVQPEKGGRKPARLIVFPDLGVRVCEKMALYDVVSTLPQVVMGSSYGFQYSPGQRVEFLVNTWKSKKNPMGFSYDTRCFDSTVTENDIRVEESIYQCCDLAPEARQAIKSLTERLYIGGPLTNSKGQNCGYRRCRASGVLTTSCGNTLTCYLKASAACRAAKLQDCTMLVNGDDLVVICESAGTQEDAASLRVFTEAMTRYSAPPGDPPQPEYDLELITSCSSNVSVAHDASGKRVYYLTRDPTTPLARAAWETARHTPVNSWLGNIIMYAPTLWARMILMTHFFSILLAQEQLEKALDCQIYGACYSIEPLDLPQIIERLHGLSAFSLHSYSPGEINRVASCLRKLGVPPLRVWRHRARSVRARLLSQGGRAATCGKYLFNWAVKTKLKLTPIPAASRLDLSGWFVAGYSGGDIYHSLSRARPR
# assay procedure: Hepatitis C polymerase inhibition, NS5B BK strain, 33P-GTP filter assay
# Type: biochemical
# condition description: Table 1A; 20 μM compound; read-out: HCV pol % inh at 20 μM
value kind: inhibition at 20 µM
In your response, put the unit directly after the numeric value.

Cc1cc(Cl)c2[nH]c3c(c2c1C#N)CCOC3(CC(=O)O)c1ccc(C(=O)O)cc1 (stereo not shown) ... 76%

Okay, here is my list. What is inhibition at 20 µM for each of these?
1. C/C=C/CCC1(CC(=O)O)OCCc2c1[nH]c1c(Cl)cc(Cl)c(Cl)c21 (stereo not shown)
2. CCC1(CC(=O)O)OCCc2c1[nH]c1c(F)cc(C)c(C#N)c21 (stereo not shown)
3. O=C(O)CC1(c2ccc(C(=O)O)cc2)OCCc2c1[nH]c1c(F)ccc(F)c21 (stereo not shown)

1. 36%
2. 43%
3. 70%

====

Kindly supply the reported IC50 values for the records listed here.
# assay target: NS5B from the BK strain (genotype 1b) (Hepatitis C virus genotype 1b)
# Construct: NS5B from the BK strain (genotype 1b) is expressed in E. coli as a protein in which the 21 C-terminal amino acids are replaced; made in house; host or cells: E. coli
# assay procedure: Hepatitis C polymerase inhibition, NS5B BK strain, 33P-GTP filter assay
# Type: biochemical
# condition description: Table 1A; NS5B BK strain; read-out: HCV pol BK IC50

Some solved entries appear below for comparison.
O=C(O)CC1(c2ccccc2)OCCc2c1[nH]c1c(Cl)cccc21 (stereo not drawn) ... > 20 µM
CCCC1(CC(=O)O)OCC(C)(C)c2c1[nH]c1c(Cl)ccc(Cl)c21 (stereo not drawn) ... 3.1 µM
O=C(O)CC1(c2ccccc2)OCCc2c1[nH]c1cccc(Br)c21 (stereo not drawn) ... > 20 µM
C/C=C/CCC1(CC(=O)O)OCCc2c1[nH]c1c(C(F)(F)F)cccc21 (stereo not drawn) ... > 20 µM
O=C(O)CC1(c2ccccc2F)OCCc2c1[nH]c1c(Cl)ccc(Cl)c21 (stereo not drawn) ... > 20 µM

Okay, here is my list. What is IC50 for each of these?
1. CC(C)C1(CC(=O)O)OCCc2c1[nH]c1cccc(C#N)c21 (stereo not drawn)
2. CCC[C@@]1(CC(=O)O)OCCc2c1[nH]c1c(Cl)ccc(Cl)c21
3. CCCCC1(CC(=O)O)OCCc2c1[nH]c1c(F)ccc(F)c21 (stereo not drawn)
4. CCC1(CC(=O)O)OCCc2c1[nH]c1c(Cl)cc(C)c(Br)c21 (stereo not drawn)

["> 20 µM", "1.1 µM", "> 20 µM", "> 5 µM"]
